# System: human platelet suspension (platelet aggregation caused by TxA2 agonist U46619)
# Test Name: Platelet aggregation reaction test, U46619-induced
# Format: cell-based
Observed Property: IC50 (µM)

These recorded examples may help you get a feel for the data.
CCOC(=O)CCCOc1ccccc1C(=O)C=Cc1ccccc1 [Compound 109] : 9.56
O=C(O)COc1cc(F)ccc1C(=O)C=Cc1ccccc1 [Compound 31] : 4.4
CCOC(=O)CCCCCOc1ccccc1C(=O)CCc1ccccc1 [Compound 115] : 0.2
CC(C)=CCOc1ccc(C=CC(=O)c2ccc(OCC=C(C)C)cc2OCCCCCC(=O)O)cc1 [Compound 32] : 5.85

a. Nc1ccsc1C=CC(=O)c1ccccc1OCCCCCC(=O)O [Compound 78]
b. CC(C)CCOc1ccc(CCC(=O)c2ccc(OCCC(C)C)cc2OCC(=O)O)cc1 [Compound 100]
c. O=C(O)COc1cc(O)ccc1C(=O)C=Cc1ccc(O)cc1 [Compound 71]
d. CC(C)=CCOc1ccc(C=CC(=O)c2ccc(OCC=C(C)C)cc2OCCCCC(=O)O)cc1 [Compound 37]
# rank by IC50, ascending (min first) State the ranking by listing the labels in the requested order.
d, b, a, c
(d: 0.23 µM, b: 1.73 µM, a: 5.87 µM, c: 65.4 µM)

P. CCOC(=O)CCCCCOc1ccccc1C(=O)C=Cc1cccs1 [Compound 61]
Q. O=C(O)CCCCCOc1ccccc1C(=O)C=Cc1ccccc1 [Compound 77]
Which has the higher IC50, P or Q ? Please indicate the selected item by its label.
Q
(Q: 5.54 µM, P: 0.54 µM)

###

# Test system: human platelet suspension (platelet aggregation caused by TxA2 agonist U46619)
# Test Name: Platelet aggregation reaction test, U46619-induced
# Type: cell-based
Observed Property: IC50 (µM)

CCOC(=O)CCCCCCOc1ccccc1C(=O)C=Cc1ccccc1 [Compound 104] : 13.5
O=C(O)CCCCCOc1ccccc1C(=O)C=Cc1cccnc1 [Compound 54] : 5.45
CC(C)=CCOc1ccc(C(=O)C=Cc2cccs2)c(OCCCCCC(=O)O)c1 [Compound 55] : 5.37
CC(=O)Nc1ccc(/C=C/C(=O)c2ccc(OCC=C(C)C)cc2OCC(=O)O)cc1 [Compound 26] : 15.7
CCCCCCOc1ccc(C=CC(=O)c2ccc(OCCCCCC)cc2OCC(=O)O)cc1 [Compound 95] : 36.9

I. CC(C)=CCOc1ccc(C(=O)/C=C/c2ccccc2OCC=C(C)C)c(OCC(=O)O)c1 [Compound 19]
II. O=C(O)CCCCOc1ccccc1C(=O)C=Cc1ccccc1 [Compound 101]
III. CC(C)=CCOc1ccc(/C=C/C(=O)c2ccc(OCC=C(C)C)cc2OCCCC(=O)[O-])cc1.[K+] [Compound 17]
IV. O=C(O)COc1ccccc1C(=O)/C=C/c1ccc(F)cc1 [Compound 28]
V. CC(C)=CCOc1ccc(C(=O)/C=C/c2ccc([N+](=O)[O-])cc2)c(OCC(=O)O)c1 [Compound 25]
Rank order required: IC50, descending. Reply: labels, ordered per the request.
V, I, II, IV, III
(V: 43.8 µM, I: 20.3 µM, II: 3.53 µM, IV: 1.8 µM, III: 0.04 µM)

1. CCOC(=O)CCCCCOc1ccccc1C(=O)C=Cc1ccccn1 [Compound 63]
2. COC(=O)COc1cc(OC(C)=O)ccc1C(=O)C=Cc1ccc(OC(C)=O)cc1 [Compound 81]
3. CCOC(=O)CCCCCOc1ccccc1C(=O)C=Cc1cccc(F)c1 [Compound 39]
4. CCOC(=O)CCCCCCCOc1ccccc1C(=O)C=Cc1ccccc1 [Compound 106]
# rank_down: sort by IC50, max first As an answer, provide the labels arranged in the order called for.
2, 1, 4, 3
(2: 28 µM, 1: 4.57 µM, 4: 2.84 µM, 3: 0.05 µM)

###

# System: human platelet suspension (platelet aggregation caused by TxA2 agonist U46619)
# Test Name: Platelet aggregation reaction test, U46619-induced
# Type: cell-based
Observed Property: IC50 (µM)

Example entries and their recorded answers appear below.
O=C(O)CCCOc1ccccc1C(=O)C=Cc1ccccc1 [Compound 34] : 9.5
CCCCOc1ccc(C=CC(=O)c2ccc(OCCCC)cc2OCC(=O)O)cc1 [Compound 94] : 40.7
CC(C)=CCOc1ccc(C(=O)/C=C/c2cccc(F)c2)c(OCCCC(=O)O)c1 [Compound 14] : 5.18

P. CC(C)=CCOc1ccc(C(=O)/C=C/c2ccc(F)cc2)c(OCC(=O)O)c1 [Compound 23]
Q. CCOC(=O)CCCOc1cc(OCC=C(C)C)ccc1C(=O)C=Cc1cccs1 [Compound 64]
Task for the reader: decide whether P or Q has the larger IC50. Could you answer with the label of the item you picked?
P
(P: 22.2 µM, Q: 5.87 µM)

###

# System: human platelet suspension (platelet aggregation caused by TxA2 agonist U46619)
# Test Name: Platelet aggregation reaction test, U46619-induced
# Assay type: cell-based
# Protocol: Blood samples were collected from healthy donors, and acid-citrate-dextrose (ACD) solution was used as an anticoagulant. The blood samples were centrifuged to obtain platelets, and residual plasma was removed by washing to prepare platelet suspension. In the experimental method, a platelet aggregometer (Chrono-Log Co., Havertown, PA, USA) was used for tests. The compound to be tested was added to the platelet suspension and reacted for 3 minutes at 37° C. with stirring (1200 rpm). […]
Observed Property: IC50 (µM)

O=C(O)CCCOc1ccccc1C(=O)/C=C/c1ccc(F)cc1 : 0.07

I. CC(C)=CCOc1ccc(CCC(=O)c2ccc(OCC=C(C)C)cc2OCCCC(=O)O)cc1
II. CCOC(=O)COc1cc(O)ccc1C(=O)C=Cc1cccc(O)c1
III. CCOC(=O)COc1ccccc1C(=O)C=Cc1ccccc1
IV. O=C(O)CCCCCCOc1ccccc1C(=O)C=Cc1ccccc1
Parameters: sort_field (IC50), sort_dir (desc). Would you mind listing the labels in the order asked for?
II, III, IV, I
(II: 25.9 µM, III: 15.3 µM, IV: 2.92 µM, I: 0.35 µM)

###

# System: human platelet suspension (platelet aggregation caused by TxA2 agonist U46619)
# Test Name: Platelet aggregation reaction test, U46619-induced
# Format: cell-based
Observed Property: IC50 (µM)

Example entries and their recorded answers appear below.
O=C(O)CCCCCOc1ccccc1C(=O)C=Cc1ccccn1 : 50.4
CC(C)=CCOc1ccc(/C=C/C(=O)c2ccc(F)cc2OCCCC(=O)O)cc1 : 5.44
CC(C)=CCOc1ccc(C=CC(=O)c2ccccc2OCCCC(=O)O)cc1 : 3.33

a. CC(C)=CCCC(C)=CCOc1ccc(C=CC(=O)c2ccc(OCC=C(C)CCC=C(C)C)cc2OCCCC(=O)O)cc1 [Compound 4]
b. O=C(O)CCCCCOc1ccccc1C(=O)/C=C/c1ccccc1F
c. CC(C)=CCOc1ccc(/C=C/C(=O)c2ccccc2OCC(=O)O)cc1
Order the records so the highest IC50 appears first and the lowest last. Dear reader, please state the labels in the requested order.
c, b, a

P. O=C(O)COc1ccccc1C(=O)C=Cc1ccccn1
Q. O=C(O)CCCOc1cc(O)ccc1C(=O)C=Cc1ccc(O)cc1
R. O=C(O)CCCCCOc1ccccc1C(=O)C=Cc1ccccc1 [Compound 36]
Returns the items ordered by IC50, from maximum to minimum. Form entry: labels listed in requested order.
P, Q, R

P. O=C(O)CCCCCOc1cc(F)ccc1C(=O)/C=C/c1ccc(F)cc1 [Compound 12]
Q. CCOC(=O)COc1ccc(C=CC(=O)c2ccc(OCC(=O)OCC)cc2OCC(=O)O)cc1
R. O=C(O)COc1cc(F)ccc1C(=O)/C=C/c1ccccc1
S. O=C(O)CCCCCOc1ccccc1C(=O)CCc1ccccc1 [Compound 116]
T. O=C(O)COc1ccccc1C(=O)C=Cc1cccnc1
Arrange the 5 molecules from largest to smallest IC50. Please express your ranking as an ordered list of the labels.
Q, T, R, P, S

###

# Test system: human platelet suspension (platelet aggregation caused by TxA2 agonist U46619)
# Test Name: Platelet aggregation reaction test, U46619-induced
# Type: cell-based
Observed Property: IC50 (nM)

CC(C)=CCOc1ccc(/C=C/C(=O)c2ccc(OCC=C(C)C)cc2OCCCC(=O)O)cc1 : 40
O=C(O)CCCCCOc1ccccc1C(=O)C=Cc1cccs1 : 570
O=C(O)CCCCCOc1ccccc1C(=O)CCc1cccc(F)c1 : 570
CCOC(=O)COc1ccccc1C(=O)C=Cc1ccco1 : 78400
CCOC(=O)CCCCOc1ccccc1C(=O)C=Cc1ccccc1 : 2900

a. O=C(O)COc1cc(OCc2ccccc2)ccc1C(=O)C=Cc1ccc(OCc2ccccc2)cc1
b. COC(=O)CCCCCOc1ccccc1C(=O)C=Cc1ccccc1
For the two items a and b , which reports the higher IC50 value? Answer format: the label of the selected item.
a

###

# System: human platelet suspension (platelet aggregation caused by TxA2 agonist U46619)
# Test Name: Platelet aggregation reaction test, U46619-induced
# Type: cell-based
pIC50: −log10 of the molar value.
Observed Property: pIC50

CC(C)=CCOc1ccc(CCC(=O)c2ccc(OCC=C(C)C)cc2OCC(=O)O)cc1 : 4.90

1. CC(C)=CCOc1ccc(C(=O)/C=C/c2ccccc2F)c(OCCCC(=O)O)c1
2. CC(C)=CCOc1ccc(C(=O)/C=C/c2ccc(OCC=C(C)C)c(OCC=C(C)C)c2)c(OCC(=O)O)c1
Which entry has a larger number for pIC50, 1 or 2 ? Lab note: record the label of whichever item you select.
1
(1: 6.29, 2: 4.84)
